Target: Streptokinase A (Streptococcus pyogenes serotype M1)
Sequence (P10520 whole entry): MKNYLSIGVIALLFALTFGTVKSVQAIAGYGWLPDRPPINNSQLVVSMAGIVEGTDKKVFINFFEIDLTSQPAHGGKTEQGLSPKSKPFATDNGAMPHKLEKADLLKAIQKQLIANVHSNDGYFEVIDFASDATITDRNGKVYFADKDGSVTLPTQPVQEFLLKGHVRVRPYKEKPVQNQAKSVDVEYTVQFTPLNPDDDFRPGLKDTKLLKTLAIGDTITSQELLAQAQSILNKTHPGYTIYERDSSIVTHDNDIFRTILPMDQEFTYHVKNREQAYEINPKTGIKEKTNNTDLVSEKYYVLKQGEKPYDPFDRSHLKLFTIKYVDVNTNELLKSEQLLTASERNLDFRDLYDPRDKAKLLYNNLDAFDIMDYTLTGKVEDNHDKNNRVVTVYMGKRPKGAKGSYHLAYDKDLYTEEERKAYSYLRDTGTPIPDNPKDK
Assay: viability-normalized secreted streptokinase activity reduction – plasminogen activation absorbance, OD405, dose response (AID 1914);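 further: secreted streptokinase activity via plasminogen activation per viability signal from cell pellet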
Type: functional, Streptococcus pyogenes M1 GAS
The source made the active and inactive calls.
Reported Property: EC50

Solved entries:
Compound String	EC50
NC(=O)NC(=O)CSc1nc2cc([N+](=O)[O-])ccc2n1-c1cccc(C(F)(F)F)c1	> 150 µM (not active)
O=C1NC(=S)N(C2CCCCC2)C(=O)/C1=C/NNC(=O)c1ccccc1	> 150 µM (not active)
N#C/C(=N\Nc1ccc(S(=O)(=O)N2CCc3ccccc32)cc1)C(N)=S	> 150 µM (not active)

QUERY: Need EC50 of O=C(Nc1ccc2c(c1)N(S(=O)(=O)c1cccs1)CCC2)c1c(F)cccc1Cl , thanks.
RESULT: > 150 µM (not active)

QUERY: Look up EC50 for this molecule: CCN1CCN(Cc2ccc(NC(=O)c3ccc(C)c(/C=C/c4cnc(Nc5cc(N6CCNCC6)nc(C)n5)cn4)c3)cc2C(F)(F)F)CC1
RESULT: 86.5 µM (active)

QUERY: Can you look up the measured EC50 of CCCCN1C(=O)NC(=O)/C(=C(/CC)Nc2ccc3c(c2)CCC3)C1=O for me?
RESULT: 74.1 µM (active)

QUERY: Recorded EC50 for N#Cc1c(NC(=O)CSc2nnc(Cc3ccccc3)[nH]2)oc(-c2ccccc2)c1-c1ccccc1 , please?
RESULT: 4.54 µM (active)

QUERY: Return reported EC50; argument: CCCN(CC(=O)Nc1cc(Cl)cc(Cl)c1)CC(=O)Nc1ccc(F)c(F)c1F
RESULT: 1.48 µM (active)

QUERY: Reported EC50, molecule Cc1nc(-c2ccc(S(=O)(=O)Nc3ccc(Br)cc3Cl)s2)cs1 : ____
RESULT: 3.98 µM (active)

* * *

assay: reduction of Shn3 3'UTR-driven luciferase in osteoblasts – cell-based, Clone20 osteoblasts, firefly luciferase, cherry-picked, dose response (AID 624132); type: functional;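 further: firefly luciferase luminescence from reporter carrying the Shn3 3'UTR in osteoblasts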
Activity calls are given as the source filed them.
Reported Property: AC50

Compound	Reported Property	Result Value
CCSc1nnc(NC(=O)c2nc(S(=O)(=O)Cc3ccc(F)cc3)ncc2Cl)s1	AC50	4.96 µM (active)

QUERY: // query AC50 value for entry COc1ccccc1C(CCNCc1ccc(N(C)C)cc1)c1ccc(OC(C)C)cc1 (stereo not given)
RESULT: 6.48 µM (active)

QUERY: Consider the compound shown here: CCN1CCN(Cc2ccc(NC(=O)c3ccc(C)c(/C=C/c4cnc(Nc5cc(N6CCNCC6)nc(C)n5)cn4)c3)cc2C(F)(F)F)CC1 What is its recorded AC50?
RESULT: 9.56 µM (active)

QUERY: Which AC50 reading was recorded for the compound S=C(NCCc1ccccc1)Nc1cccc2cnccc12 ?
RESULT: 0.922 µM (active)

QUERY: Quick one: AC50 for O=C(CN1C(=O)c2ccccc2S1(=O)=O)c1ccc(Cl)cc1Cl ?
RESULT: 3.53 µM (active)

* * *

Molecular target: Corticotropin-releasing factor receptor 2/Corticotropin-releasing factor-binding protein (Homo sapiens, UniProt P24387+Q13324)
Sequence (Q13324 whole entry): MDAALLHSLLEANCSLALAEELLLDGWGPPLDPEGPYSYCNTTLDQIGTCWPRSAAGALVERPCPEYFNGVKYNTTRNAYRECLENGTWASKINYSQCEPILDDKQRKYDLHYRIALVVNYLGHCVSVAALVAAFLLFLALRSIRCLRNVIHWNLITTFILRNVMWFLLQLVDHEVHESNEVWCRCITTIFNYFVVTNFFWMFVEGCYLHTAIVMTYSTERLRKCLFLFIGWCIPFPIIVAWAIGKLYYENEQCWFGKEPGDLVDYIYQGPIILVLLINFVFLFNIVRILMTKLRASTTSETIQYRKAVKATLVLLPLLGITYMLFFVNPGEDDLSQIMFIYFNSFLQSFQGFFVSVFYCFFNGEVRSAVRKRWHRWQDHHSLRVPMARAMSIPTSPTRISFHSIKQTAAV
Sequence (P24387 whole entry): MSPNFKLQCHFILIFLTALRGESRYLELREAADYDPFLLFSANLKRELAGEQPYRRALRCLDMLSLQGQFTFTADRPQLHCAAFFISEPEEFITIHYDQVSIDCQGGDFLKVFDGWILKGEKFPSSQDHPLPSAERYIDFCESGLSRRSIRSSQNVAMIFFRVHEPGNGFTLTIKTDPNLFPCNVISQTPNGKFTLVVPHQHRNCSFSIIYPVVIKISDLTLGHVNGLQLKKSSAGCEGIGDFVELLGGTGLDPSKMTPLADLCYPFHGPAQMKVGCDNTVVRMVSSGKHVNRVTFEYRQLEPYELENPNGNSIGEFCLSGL
Test: Dose Response confirmation of uHTS hits for small molecule antagonists of the CRF-binding protein and CRF-R2 receptor complex.
Assay type: functional
Conditions: read-out: IC50_Mean
Active and inactive are the calls of the source.
Please state which outcome applies, choosing from yes (1) for active, no (0) for inactive

Recorded results for 8 molecules are shown here.
Molecule	Class Name
O=C(NCCO)c1nc(C(=O)c2ccc(Cl)cc2)c2ccccc2n1	no (0)
CCCNC(=O)c1ccc(CN2CCc3ccccc3C2)cc1	no (0)
O=C1CC(c2ccccc2)SC(N(c2ccccc2)c2ccccc2)=N1 (stereo not drawn)	yes (1)
CCc1nnc(NC(=O)CCC(=O)N2CCN(Cc3cc(Cl)ccc3OC)CC2)s1	no (0)
COc1cccc(CNC(=O)CN(c2ccc(C(C)C)cc2)S(=O)(=O)c2c(C)noc2C)c1	no (0)
N#Cc1ccc(S(=O)(=O)N2CCN(C(=O)[C@@H]3CCCN3C(=O)c3cccs3)CC2)cc1	no (0)
Fc1ccc(C2c3cccn3CCN2C(S)=Nc2cccc(F)c2)cc1 (stereo not drawn)	no (0)
Cc1cccc(C(=O)N2CCc3ccccc3C2)c1[N+](=O)[O-]	no (0)

Continue with the next molecule.
QUERY: How did this test come out for CCOC(=O)C(CC)/C(C)=N\NC(=O)c1cccc(C)c1 (stereo not drawn) ?
RESULT: no (0)

* * *

target: UniProtKB P38532; experiment: decrease of HSF1-responsive luciferase luminescence – cell-based, NIH3T3, dose retest, confirmation (AID 2382); type: functional;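 further: NIH3T3 fibroblasts with HSF1-driven luciferase reporter stressed by proteasome inhibitor MG132; luminescence from HSF1-driven luciferase expression after 8 hours of MG132 stress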
Sequence (P38532 whole entry): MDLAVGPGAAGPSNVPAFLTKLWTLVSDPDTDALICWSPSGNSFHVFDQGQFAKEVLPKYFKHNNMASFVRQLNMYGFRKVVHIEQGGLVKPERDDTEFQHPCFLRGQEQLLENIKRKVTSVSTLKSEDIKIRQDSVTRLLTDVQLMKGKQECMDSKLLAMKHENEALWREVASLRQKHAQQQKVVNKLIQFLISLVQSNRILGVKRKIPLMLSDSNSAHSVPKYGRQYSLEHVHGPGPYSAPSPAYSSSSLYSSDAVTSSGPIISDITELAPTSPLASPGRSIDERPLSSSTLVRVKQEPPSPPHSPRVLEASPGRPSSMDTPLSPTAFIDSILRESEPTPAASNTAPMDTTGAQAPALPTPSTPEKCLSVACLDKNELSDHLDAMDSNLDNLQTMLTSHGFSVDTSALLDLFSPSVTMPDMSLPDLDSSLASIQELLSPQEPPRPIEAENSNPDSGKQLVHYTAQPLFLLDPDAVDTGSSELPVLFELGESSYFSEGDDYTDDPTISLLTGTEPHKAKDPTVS
Active and inactive are the calls of the source.
Reported Property: EC50

Before answering, review these 2 worked examples.
Molecule	Result Value
CN1CCN(C(=O)c2cc([N+](=O)[O-])cc([N+](=O)[O-])c2)CC1	> 195 µM (not active)
Cc1c(C)c2ccc(OCC(=O)Nc3ccccn3)c(C)c2oc1=O	< 0.16 µM (active)

QUERY: Look up EC50: O=C(O)CCSc1nnc(-c2ccc3c(c2)OCO3)o1
RESULT: 3.01 µM (active)

QUERY: I'd like to know its EC50. The molecule in question is CCN1C(=O)[C@H]2[C@@H](c3ccc(C)cc3)N3C(=O)N(c4ccc(C)cc4)C(=O)[C@@]3(C)[C@H]2C1=O
RESULT: > 195 µM (not active)

QUERY: Can you look up the measured EC50 of COc1c([N+](=O)[O-])c(=O)oc2ccccc12 for me?
RESULT: > 195 µM (not active)

* * *

target: Fatty acid synthase (Homo sapiens); test: inhibition of human FAS-TE enzyme activity – biochemical, endpoint fluorescence intensity, uHTS hits, dose response (AID 624327); assay type: functional;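 further: fluorescence from hydrolysis of an O-methyl fluorescein acyl ester substrate by the enzyme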
Sequence (P49327 whole entry): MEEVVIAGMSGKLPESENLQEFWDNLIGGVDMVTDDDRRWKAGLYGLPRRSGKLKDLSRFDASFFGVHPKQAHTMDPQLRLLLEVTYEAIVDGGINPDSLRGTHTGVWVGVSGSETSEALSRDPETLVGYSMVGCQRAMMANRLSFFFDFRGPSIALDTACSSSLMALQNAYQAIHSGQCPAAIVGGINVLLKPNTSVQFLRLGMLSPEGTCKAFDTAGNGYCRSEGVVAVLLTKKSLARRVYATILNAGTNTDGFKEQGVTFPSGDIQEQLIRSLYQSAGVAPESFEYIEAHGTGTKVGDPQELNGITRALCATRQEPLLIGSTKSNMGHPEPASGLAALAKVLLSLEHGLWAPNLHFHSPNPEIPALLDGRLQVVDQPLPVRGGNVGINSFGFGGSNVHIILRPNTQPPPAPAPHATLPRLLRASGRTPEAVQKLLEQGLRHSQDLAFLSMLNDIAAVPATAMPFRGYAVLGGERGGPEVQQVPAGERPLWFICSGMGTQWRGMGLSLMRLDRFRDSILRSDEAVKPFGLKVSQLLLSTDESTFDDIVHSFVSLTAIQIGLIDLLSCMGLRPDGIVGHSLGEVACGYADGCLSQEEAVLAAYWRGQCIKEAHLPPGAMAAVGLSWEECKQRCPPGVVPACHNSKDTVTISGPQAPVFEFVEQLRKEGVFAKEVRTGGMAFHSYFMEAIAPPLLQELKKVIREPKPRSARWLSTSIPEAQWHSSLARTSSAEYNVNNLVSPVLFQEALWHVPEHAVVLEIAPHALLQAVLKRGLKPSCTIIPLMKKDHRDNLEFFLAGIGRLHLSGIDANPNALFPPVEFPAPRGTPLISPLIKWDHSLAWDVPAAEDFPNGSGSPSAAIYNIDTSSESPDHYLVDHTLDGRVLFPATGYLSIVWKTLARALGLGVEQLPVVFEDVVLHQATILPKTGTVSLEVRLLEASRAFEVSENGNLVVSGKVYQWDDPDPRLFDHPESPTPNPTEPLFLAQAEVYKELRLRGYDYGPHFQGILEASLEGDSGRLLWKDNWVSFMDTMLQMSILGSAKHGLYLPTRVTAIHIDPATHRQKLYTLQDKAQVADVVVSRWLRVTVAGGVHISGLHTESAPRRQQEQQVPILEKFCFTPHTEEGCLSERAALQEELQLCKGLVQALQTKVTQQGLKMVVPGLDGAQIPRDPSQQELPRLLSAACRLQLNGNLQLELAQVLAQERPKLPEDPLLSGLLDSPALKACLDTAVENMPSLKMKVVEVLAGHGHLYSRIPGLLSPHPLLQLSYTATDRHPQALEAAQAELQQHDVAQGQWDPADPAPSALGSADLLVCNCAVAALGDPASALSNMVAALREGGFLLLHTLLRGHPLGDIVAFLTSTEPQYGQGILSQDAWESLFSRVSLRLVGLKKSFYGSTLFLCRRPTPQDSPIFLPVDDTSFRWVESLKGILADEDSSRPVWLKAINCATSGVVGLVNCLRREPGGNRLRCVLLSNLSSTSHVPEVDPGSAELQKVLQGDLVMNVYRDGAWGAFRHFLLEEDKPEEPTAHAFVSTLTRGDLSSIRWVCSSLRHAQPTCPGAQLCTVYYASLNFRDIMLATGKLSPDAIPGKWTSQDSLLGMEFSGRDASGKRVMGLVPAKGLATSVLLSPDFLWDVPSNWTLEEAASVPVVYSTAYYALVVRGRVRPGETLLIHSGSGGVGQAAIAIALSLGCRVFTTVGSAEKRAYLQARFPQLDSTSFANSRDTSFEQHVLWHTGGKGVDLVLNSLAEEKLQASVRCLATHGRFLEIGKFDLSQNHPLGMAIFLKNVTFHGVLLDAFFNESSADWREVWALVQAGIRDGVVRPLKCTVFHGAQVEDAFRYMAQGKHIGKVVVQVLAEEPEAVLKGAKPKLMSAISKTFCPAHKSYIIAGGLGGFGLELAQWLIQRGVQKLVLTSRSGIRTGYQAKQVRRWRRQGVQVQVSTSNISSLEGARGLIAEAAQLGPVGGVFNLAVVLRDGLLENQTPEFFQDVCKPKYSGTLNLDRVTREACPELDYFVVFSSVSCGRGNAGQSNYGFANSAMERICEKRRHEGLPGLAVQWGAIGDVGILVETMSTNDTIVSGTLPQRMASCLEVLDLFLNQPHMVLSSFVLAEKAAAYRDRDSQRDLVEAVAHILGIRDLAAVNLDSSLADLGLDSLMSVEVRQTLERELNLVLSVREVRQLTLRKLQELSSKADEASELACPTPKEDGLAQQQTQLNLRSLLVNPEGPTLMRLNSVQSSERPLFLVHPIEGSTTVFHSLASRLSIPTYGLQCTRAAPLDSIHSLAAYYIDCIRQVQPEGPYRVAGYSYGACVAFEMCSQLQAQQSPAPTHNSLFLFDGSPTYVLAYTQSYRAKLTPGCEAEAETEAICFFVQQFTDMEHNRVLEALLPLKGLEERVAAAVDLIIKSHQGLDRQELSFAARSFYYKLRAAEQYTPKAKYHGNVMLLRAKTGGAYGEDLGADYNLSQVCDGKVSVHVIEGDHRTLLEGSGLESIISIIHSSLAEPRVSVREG
Activity calls are given as the source filed them.
The reply should be one of these categories: yes for active, no for inactive

These recorded examples may help you get a feel for the data.
Compound String	Assayed Target	Class Name
COc1ccc(C(=O)COC(=O)c2cc([N+](=O)[O-])ccc2N2CCOCC2)c(OC)c1	Fatty acid synthase (Homo sapiens)	yes
CC(C)c1ccccc1NC(=O)COC(=O)c1cc([N+](=O)[O-])ccc1N1CCOCC1	Fatty acid synthase (Homo sapiens)	yes
Cc1cc(-c2ccc(/C=N/n3cnnc3)o2)c(C)c([N+](=O)[O-])c1	Fatty acid synthase (Homo sapiens)	yes
COc1ccc([N+](=O)[O-])cc1NC(=O)CC(c1ccccc1)c1ccccc1	Fatty acid synthase (Homo sapiens)	no
CCCCCCCCNC(=O)/C(C#N)=C/c1ccccc1[N+](=O)[O-]	Fatty acid synthase (Homo sapiens)	yes

Now consider the entry below.
QUERY: Recorded test outcome, item C/C(=N\NC(=O)c1nnn(-c2nonc2N)c1-c1ccc(Cl)c(Cl)c1)c1ccncc1
RESULT: no

Provenance of the data: ChEMBL document CHEMBL1201862
